Provenance of the data: ChEMBL document CHEMBL5728291

- experimental-system: Monoglyceride lipase (Homo sapiens)
- Sequence (Q99685 whole entry): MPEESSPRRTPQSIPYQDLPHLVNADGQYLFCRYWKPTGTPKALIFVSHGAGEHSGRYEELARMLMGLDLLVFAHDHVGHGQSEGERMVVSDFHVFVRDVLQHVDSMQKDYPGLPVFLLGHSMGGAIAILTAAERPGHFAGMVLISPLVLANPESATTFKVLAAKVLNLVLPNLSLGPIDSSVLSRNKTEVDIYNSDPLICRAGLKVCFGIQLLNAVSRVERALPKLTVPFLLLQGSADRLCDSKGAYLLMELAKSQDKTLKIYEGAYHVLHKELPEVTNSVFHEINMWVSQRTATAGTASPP
pIC50: −log10 of the molar value.
value-kind: pIC50

q: Consider the molecule O=C(O)c1ccn(C(=O)N2C[C@H]3C[C@H](Oc4cc(Cl)ccc4C(F)(F)F)C[C@H]3C2)n1 and give its measured pIC50.
a: > 7.00
